Please respond with reported IC50 for every item in the list.
Biological target: G1 APOL1 (Homo sapiens, UniProt O14791, I384M/S342G)
Construct: expressed in transfected cells
Sequence (O14791 28-398 S342G/I384M): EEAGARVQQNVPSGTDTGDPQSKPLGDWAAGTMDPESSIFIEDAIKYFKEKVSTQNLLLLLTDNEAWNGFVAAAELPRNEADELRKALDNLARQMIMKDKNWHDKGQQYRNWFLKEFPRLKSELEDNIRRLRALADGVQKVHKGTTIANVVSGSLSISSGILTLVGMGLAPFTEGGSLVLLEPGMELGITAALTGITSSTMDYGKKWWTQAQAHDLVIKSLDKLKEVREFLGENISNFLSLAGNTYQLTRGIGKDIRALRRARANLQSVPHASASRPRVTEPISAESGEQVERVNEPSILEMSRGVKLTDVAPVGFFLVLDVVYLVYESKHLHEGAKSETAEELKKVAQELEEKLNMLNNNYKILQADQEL
Assay: Acute APOL1 Thallium Assay with inducible stable clones of HEK 293 cells
Assay type: cell-based
Conditions: HEK 293 T-Rex cells expressing G1 APOL1; read-out: Thallium Assay (IC50)

q: Please look at "Cc1cc(CNC(=O)[C@H]2C[C@H](c3c(-c4ccc(F)cc4)[nH]c4c(F)cc(F)cc43)C2)nn1C" and tell me its recorded IC50 on G1 APOL1 (Homo sapiens, UniProt O14791, I384M/S342G).
a: > 1000 nM

q: Please look at O=C([C@H]1C[C@H](c2c(-c3ccc(F)cc3)[nH]c3c(F)cc(F)cc32)C1)N1CCOCC1CCO (some centres unmarked) and tell me its recorded IC50 on G1 APOL1 (Homo sapiens, UniProt O14791, I384M/S342G).
a: > 1000 nM

q: Please look at "O=C(N[C@@H](CO)C(F)F)[C@H]1C[C@H](c2c(-c3ccc(F)cc3)[nH]c3c(F)cc(F)cc32)C1" and tell me its recorded IC50 on G1 APOL1 (Homo sapiens, UniProt O14791, I384M/S342G).
a: < 250 nM

q: Please look at "Cn1cncc1CNC(=O)[C@H]1C[C@H](c2c(-c3ccc(F)cc3)[nH]c3c(F)cc(F)cc32)C1" and tell me its recorded IC50 on G1 APOL1 (Homo sapiens, UniProt O14791, I384M/S342G).
a: > 1000 nM

q: Please look at "O=C(N[C@H]1CC[C@H]1O)[C@H]1C[C@H](c2c(-c3ccc(F)cc3)[nH]c3c(F)cc(F)cc32)C1" and tell me its recorded IC50 on G1 APOL1 (Homo sapiens, UniProt O14791, I384M/S342G).
a: 250 to 1000 nM

q: Please look at "O=C(NCC1(O)CCCCC1)[C@H]1C[C@H](c2c(-c3ccc(F)cc3)[nH]c3c(F)cc(F)cc32)C1" and tell me its recorded IC50 on G1 APOL1 (Homo sapiens, UniProt O14791, I384M/S342G).
a: > 1000 nM

q: Please look at "O=C(NC[C@H](O)C(F)(F)F)[C@H]1C[C@H](c2c(-c3ccc(F)cc3)[nH]c3c(F)cc(F)cc32)C1" and tell me its recorded IC50 on G1 APOL1 (Homo sapiens, UniProt O14791, I384M/S342G).
a: 250 to 1000 nM

q: Please look at "C[C@H](CO)NC(=O)CNC(=O)[C@H]1C[C@H](c2c(-c3ccc(F)cc3)[nH]c3c(F)cc(F)cc32)C1" and tell me its recorded IC50 on G1 APOL1 (Homo sapiens, UniProt O14791, I384M/S342G).
a: > 1000 nM

q: Please look at "NC(=O)[C@H](CO)NC(=O)[C@H]1C[C@H](c2c(-c3ccc(F)cc3)[nH]c3c(F)cc(F)cc32)C1" and tell me its recorded IC50 on G1 APOL1 (Homo sapiens, UniProt O14791, I384M/S342G).
a: 250 to 1000 nM

q: Please look at "Cn1ccc(CNC(=O)[C@H]2C[C@H](c3c(-c4ccc(F)cc4)[nH]c4c(F)cc(F)cc43)C2)n1" and tell me its recorded IC50 on G1 APOL1 (Homo sapiens, UniProt O14791, I384M/S342G).
a: 250 to 1000 nM

q: Please look at "O=C(NC1(CO)CCC1)[C@H]1C[C@@H](c2c(-c3ccc(F)cc3)[nH]c3c(F)cc(F)cc32)C1" and tell me its recorded IC50 on G1 APOL1 (Homo sapiens, UniProt O14791, I384M/S342G).
a: 250 to 1000 nM

q: Please look at "O=C(NC(CO)(CO)CO)[C@H]1C[C@@H](c2c(-c3ccc(F)cc3)[nH]c3c(F)cc(F)cc32)C1" and tell me its recorded IC50 on G1 APOL1 (Homo sapiens, UniProt O14791, I384M/S342G).
a: 250 to 1000 nM

q: Please look at "O=C(NCCn1cnnc1)[C@H]1C[C@H](c2c(-c3ccc(F)cc3)[nH]c3c(F)cc(F)cc32)C1" and tell me its recorded IC50 on G1 APOL1 (Homo sapiens, UniProt O14791, I384M/S342G).
a: > 1000 nM

q: Please look at "O=C(N[C@H]1C[C@H](O)C1)[C@H]1C[C@H](c2c(-c3ccc(F)cc3)[nH]c3c(F)cc(F)cc32)C1" and tell me its recorded IC50 on G1 APOL1 (Homo sapiens, UniProt O14791, I384M/S342G).
a: > 1000 nM
